Test: Particle size analysis by laser diffraction
Conditions: laser diffraction, dry dispersion 3 bar, n = 3
Recorded Endpoint: Particle size D10 (μm)

INSERT INTO results (molecule, unit_abbreviation, value_reported) VALUES
  ('N[C@@H](CCC(=O)O)C(=O)O [Formulation G3, L-glutamic acid]', 'μm', 0.64),
  ('N[C@@H](CCC(=O)O)C(=O)O [Formulation G2, L-glutamic acid]', 'μm', 0.54),
  ('N[C@@H](CCC(=O)O)C(=O)O [Formulation G1, L-glutamic acid]', 'μm', 0.99),
  ('N[C@@H](CCC(=O)O)C(=O)O [Formulation G0, L-glutamic acid]', 'μm', 6.97);

Data provenance is paper PMC11344821.
